# TARGET OR SYSTEM: Metabotropic glutamate receptor 5 (Rattus norvegicus) (UniProt P31424)
# Sequence (P31424 whole entry, looked up): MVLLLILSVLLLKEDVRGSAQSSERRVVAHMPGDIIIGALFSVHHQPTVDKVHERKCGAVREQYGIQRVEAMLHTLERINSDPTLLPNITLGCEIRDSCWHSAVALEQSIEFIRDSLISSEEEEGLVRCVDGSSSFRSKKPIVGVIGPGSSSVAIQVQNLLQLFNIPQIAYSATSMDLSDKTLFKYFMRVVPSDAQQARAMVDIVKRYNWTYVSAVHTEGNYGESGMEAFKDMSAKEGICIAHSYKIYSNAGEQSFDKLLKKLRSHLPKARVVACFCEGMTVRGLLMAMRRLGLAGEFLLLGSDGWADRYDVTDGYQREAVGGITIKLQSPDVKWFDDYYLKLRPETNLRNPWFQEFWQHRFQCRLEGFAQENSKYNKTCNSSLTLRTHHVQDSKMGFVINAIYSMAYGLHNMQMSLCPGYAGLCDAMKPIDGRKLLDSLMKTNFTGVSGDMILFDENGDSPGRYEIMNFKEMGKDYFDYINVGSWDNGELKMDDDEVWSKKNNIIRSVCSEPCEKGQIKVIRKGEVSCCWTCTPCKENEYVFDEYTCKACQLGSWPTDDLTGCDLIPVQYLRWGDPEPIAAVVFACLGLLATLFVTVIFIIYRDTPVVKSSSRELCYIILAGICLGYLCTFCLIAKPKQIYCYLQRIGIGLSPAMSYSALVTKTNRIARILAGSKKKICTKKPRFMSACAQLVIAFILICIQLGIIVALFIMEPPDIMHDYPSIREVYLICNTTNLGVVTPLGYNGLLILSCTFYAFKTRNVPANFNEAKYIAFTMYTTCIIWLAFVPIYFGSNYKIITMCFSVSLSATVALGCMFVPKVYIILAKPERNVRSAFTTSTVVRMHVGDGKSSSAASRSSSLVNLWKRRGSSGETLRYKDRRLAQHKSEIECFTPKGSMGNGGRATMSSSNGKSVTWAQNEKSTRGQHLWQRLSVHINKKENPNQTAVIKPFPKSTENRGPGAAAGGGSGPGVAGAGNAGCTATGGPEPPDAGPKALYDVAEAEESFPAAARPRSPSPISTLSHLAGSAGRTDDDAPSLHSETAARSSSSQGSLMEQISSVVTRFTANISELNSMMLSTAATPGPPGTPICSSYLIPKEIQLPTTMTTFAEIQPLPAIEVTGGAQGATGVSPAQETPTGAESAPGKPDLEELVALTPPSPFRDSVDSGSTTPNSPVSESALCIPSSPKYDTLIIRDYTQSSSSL
# METHOD NOTES: [3H]methoxyPEPy displacement at rat mGlu5 – biochemical, HEK293A membranes, three-point Ki (AID 652191)
# CONDITION DESCRIPTION: rmGlu5 HEK293A membranes
Calls of active or inactive are those of the source. The rule behind the calls is not given here.
MEASUREMENT NAME: Ki

COMPOUND: O=C(c1ccc(C#Cc2cccc(F)c2)cc1)N1CCC1
RECORDED VALUE: 40 nM
--
COMPOUND: O=C(c1ccc(C#Cc2cccc(F)c2)cn1)N1CCC1
RECORDED VALUE: 40 nM
--
COMPOUND: O=C(c1ccc(C#Cc2cccc(F)c2)cc1)N1CCOCC1
RECORDED VALUE: inactive
--
COMPOUND: O=C(c1ccc(C#Cc2cccc(F)c2)cn1)N1CCOCC1
RECORDED VALUE: 70 nM
--
COMPOUND: CC1CCN1C(=O)c1ccc(C#Cc2cccc(F)c2)cn1 (configuration not stated)
RECORDED VALUE: 4.83 nM

Briefly, Ki measured for CNC(=O)c1ccc(C#Cc2cccc(F)c2)cc1 : inactive

Briefly, Ki measured for O=C(c1ccc(C#Cc2cccc(F)c2)cn1)N1CCCCC1 : 10 nM

Briefly, Ki measured for O=C(c1ccc(C#Cc2cccc(F)c2)cn1)N1CC(F)C1 : 70 nM

Briefly, Ki measured for O=C(c1ccc(C#Cc2cccc(F)c2)cn1)N1CCC(F)(F)CC1 : 4.42 nM

Briefly, Ki measured for O=C(c1ccc(C#Cc2cccc(F)c2)cn1)N1CCC(F)(F)C1 : 10 nM

Briefly, Ki measured for CNC(=O)c1ccc(C#Cc2cccc(F)c2)cn1 : inactive

Briefly, Ki measured for O=C(c1ccc(C#Cc2cccc(F)c2)cn1)N1CCC(O)CC1 : inactive

----------
# TARGET OR SYSTEM: Metabotropic glutamate receptor 5 (Rattus norvegicus)
# METHOD NOTES: [3H]methoxyPEPy displacement at rat mGlu5 – biochemical, HEK293A membranes, three-point Ki (AID 652191)
# CONDITION DESCRIPTION: rmGlu5 HEK293A membranes
Calls of active or inactive are those of the source. The rule behind the calls is not given here.
MEASUREMENT NAME: Ki

Reference set (5 entries):
COMPOUND: O=C(c1ccc(C#Cc2cccc(F)c2)cn1)N1CCCC1
Ki: 0.02 µM
//
COMPOUND: O=C(c1ccc(C#Cc2cccc(F)c2)cn1)N1CC2CC2C1 (stereo unspecified)
Ki: 0.01 µM
//
COMPOUND: O=C(c1ccc(C#Cc2cccc(F)c2)nc1)N1CCC1
Ki: inactive
//
COMPOUND: O=C(c1ccc(C#Cc2cccc(F)c2)cn1)N1CC(O)(c2ccccc2)C1
Ki: inactive
//
COMPOUND: O=C(c1ccc(C#Cc2cccc(F)c2)cn1)N1CCCCCC1
Ki: 0.00382 µM

From here, focus on the item given below.
Briefly, Ki measured for O=C(c1ccc(C#Cc2cccc(F)c2)nc1)N1CCOCC1 : inactive

The values you see were collected from PubChem BioAssay AID652191.
